system: OVCAR-8 ovarian; experiment: NCI tumour cell line growth inhibition, 48 h
outcome-measure: TGI

Before answering, review these 3 worked examples.
CN(C)c1nc(=Nc2ccc3ccccc3c2)ss1; > 100 µM
Cc1ccc(N2C(=O)C3c4[nH]c5ccccc5c4C4CCC(C(C)(C)C)CC4C3C2=O)cc1 (centres undefined); 20.9 µM
NC(N)=N/N=C/c1c(-c2ccccc2)nc2n1ccc1nc(-c3ccccc3)c(/C=N/N=C(N)N)n12; > 100 µM

IN: Notebook: pull reported TGI for OVCAR-8 ovarian, entry N#C/C(=C\c1c(-c2ccccc2)[nH]c2ccccc12)S(=O)(=O)c1ccccc1
OUT: > 78 µM

IN: Record lookup: for OVCAR-8 ovarian, what TGI belongs to O=C1C=C(Br)c2c(-c3ccccc3)oc3cccc1c23 ?
OUT: > 100 µM

IN: TGI of O=c1[nH]c2ccccc2nc1-c1c[nH]c2ccccc12 on OVCAR-8 ovarian?
OUT: > 100 µM

IN: Which measured TGI belongs to CC(C)[C@@H]1NC(=O)[C@H]2N=C(O[C@@H]2C)[C@@H]2CCCN2C(=O)[C@H](Cc2ccccc2)NC(=O)[C@@H]2CSC(=N2)[C@@H](Cc2ccccc2)NC(=O)[C@@H]2CSC1=N2 , tested on OVCAR-8 ovarian?
OUT: > 50 µM

IN: Find TGI (OVCAR-8 ovarian) for the entry CC(=O)Nc1ccccc1SCCSSCCSc1ccccc1NC(C)=O
OUT: > 100 µM

IN: Under OVCAR-8 ovarian: TGI value of Nn1c(-c2ccccc2Cl)nc2ccccc2c1=O ?
OUT: > 100 µM

IN: Look up TGI with OVCAR-8 ovarian for this compound: O=C(N=S(NC(=O)c1ccccc1)C(Cl)(Cl)Cl)c1ccccc1 (centres undefined)
OUT: 38.8 µM

###

test system: SK-OV-3 ovarian; assay: NCI tumour cell line growth inhibition, 48 h
outcome-measure: TGI

Cc1ccc(C2=NOC3=c4ccccc4=CSC3=C2c2ccc([N+](=O)[O-])cc2)cc1; 49 µM

IN: I have this compound here, Fc1ccc2nc3n(c2c1)C(c1c(F)cccc1F)SC3 (stereo unspecified) , and I need its recorded TGI.
OUT: > 100 µM

IN: Tell me the measured TGI of CCOC(=O)C1Oc2ccc([N+](=O)[O-])c3c2C1(O)CCC3 (stereo unspecified) , please.
OUT: > 100 µM

IN: Please give the measured TGI for this compound: CCOC(=O)/C(Cl)=C(\C)Nc1nc2c(ccc3ccccc32)s1
OUT: > 100 µM

IN: Can you look up the measured TGI of CC1CCCc2c(C#N)c(N)nc(-c3ccc(Cl)cc3)c21 (stereo unspecified) for me?
OUT: > 100 µM

IN: Which TGI reading was recorded for the compound COC(=O)Cn1c2c(c3c(O)cccc31)C(=O)c1ccccc1-2 ?
OUT: > 100 µM

IN: Which value of TGI has been reported for C=CC(=O)N(C)[C@H]1C[C@H]2OC(C)(C1OC)n1c3ccccc3c3c4c(c5c6ccccc6n2c5c31)C(=O)NC4 (stereo partly specified) in the records?
OUT: 0.318 µM

IN: What TGI value was documented for this compound, O=c1oc2ccccc2cc1/C=N/N1C(=S)N(c2ccccc2)C(=Nc2ccccc2)C1=Nc1ccccc1 ?
OUT: > 100 µM

IN: Consider the compound CC1=C(CCC(C)N(C)Cc2ccc(OCCCN3CCCC3)cc2)C(C)(C)CCC1 (stereo unspecified) and give its measured TGI.
OUT: 23.8 µM

IN: Param item = CCOc1ccc2nc(NC(=O)c3c/c(=N\NC(=O)C[N+](C)(C)C)c4ccc(O)cc4o3)sc2c1 ; retrieve measured TGI.
OUT: 25.2 µM

IN: Looking for the measured TGI of COCn1c2ccc(OC(C)=O)cc2c2c(=O)oc(N(C)C)nc21 , can you help?
OUT: > 100 µM

###

test system: SK-MEL-2 melanoma; test: NCI tumour cell line growth inhibition, 48 h
outcome-measure: TGI

C[C@]12CCC3[C@@H](CC[C@@H]4c5nonc5CC[C@]34C)C1CCC(=O)N2 (some centres not stated); > 100 µM
CCN=C1C=CC(=C(c2ccc(N)cc2)c2ccc(N(CC)CC)c(C)c2)C=C1; 0.943 µM

IN: Lab request: please report TGI under test system SK-MEL-2 melanoma for O=c1[nH]c2ccccc2nc1-c1c[nH]c2ccccc12
OUT: > 100 µM

IN: Hello, I am looking for reported TGI with SK-MEL-2 melanoma for COC(=O)C1=CSC2(S1)C(C(=O)OC)=CSc1c2ssc1=Nc1ccccc1 (configuration not stated) . Could you help?
OUT: 7.36 µM

IN: SK-MEL-2 melanoma / TGI / Cc1cc(C)c(C2=NOC(c3ccccc3)(c3cc(=O)n(-c4ccccc4)s3)O2)c(C)c1 (configuration not stated) : value?
OUT: 89.5 µM

IN: // fetch SK-MEL-2 melanoma TGI for COc1ccc(N2C(=O)C3c4[nH]c5ccc(C)cc5c4C4CCC(C)CC4C3C2=O)cc1 (configuration not stated)
OUT: > 100 µM

IN: Recall the recorded TGI for Cc1ccc(/C=N/Nc2cnccn2)s1 with SK-MEL-2 melanoma and state it.
OUT: > 100 µM

IN: Form field: TGI recorded for Cc1ccc(-c2cc(-c3ccc(C)cc3)nc(NCCNc3ccnc4cc(Cl)ccc34)n2)cc1 with SK-MEL-2 melanoma (enter value)
OUT: 3.63 µM

IN: Request - read-out TGI | tested on SK-MEL-2 melanoma | compound N#Cc1c(N/N=C/c2c(Cl)cccc2Cl)nc(N)nc1N1CCOCC1
OUT: 81.8 µM

IN: Query TGI on SK-MEL-2 melanoma for COc1ccc(NS(=O)CCCc2ccccc2)cc1 (configuration not stated)
OUT: > 100 µM

IN: Identify the measured TGI of CSCC1CC(c2ccc(Cl)cc2)=NO1 (configuration not stated) for SK-MEL-2 melanoma.
OUT: > 100 µM

IN: Recorded TGI for C=CC(=O)N(C)[C@H]1C[C@H]2OC(C)(C1OC)n1c3ccccc3c3c4c(c5c6ccccc6n2c5c31)C(=O)NC4 (some centres not stated) with SK-MEL-2 melanoma, please?
OUT: 1.49 µM

IN: Please provide the recorded TGI for CC1CCCc2c(C#N)c(N)nc(-c3ccc(Cl)cc3)c21 (configuration not stated) , tested on SK-MEL-2 melanoma.
OUT: 44.4 µM

IN: Query for SK-MEL-2 melanoma: what TGI does the record show for COc1ccc(NC(=O)/C(=N\NC(=O)C[n+]2ccccc2)c2c(O)c3ccc(O)cc3oc2=O)c([N+](=O)[O-])c1 ?
OUT: > 100 µM

###

Entries and their measured TGI follow.
tested on: T-47D breast; experiment: NCI tumour cell line growth inhibition, 48 h

IN: If you can, please state the reported TGI value of COc1ccc(-c2n[nH]nc2-c2cc(OC)c3c(c2OC)OCO3)cc1 .
OUT: > 100 µM

IN: What does the data say about its TGI? Entry: N#C/C(=C\c1ccccc1)C(=O)Nc1nnc(-c2ccccc2)o1
OUT: > 100 µM

IN: Which TGI is listed for COc1ccc(N2C(=O)C3c4[nH]c5c(C)cccc5c4C4CCC(C(C)(C)C)CC4C3C2=O)cc1 (stereo not given) ?
OUT: > 10 µM

IN: Returns the measured TGI for the input molecule. Input: O=C1C=C(Br)c2c(-c3ccccc3)oc3cccc1c23
OUT: > 100 µM

IN: # input molecule: CC(=O)Nc1ccccc1SCCSSCCSc1ccccc1NC(C)=O ; wanted: its TGI
OUT: 92.9 µM

###

Entries and their TGI values follow.
tested on: A549 NSCLC; experiment: NCI tumour cell line growth inhibition, 48 h

Observe how each entry below is paired with its result.
CCC1CN2CCc3cc(OC)c(OC)cc3C2CC1CC1c2cc(OC)c(OC)cc2CCN1C(=O)C1CCCN1C(=O)OCc1ccccc1 (centres undefined); 39.2 µM
CN(C)CCCNC(=O)N/N=C/c1cccc([N+](=O)[O-])c1; > 100 µM
COc1cc2c(cc1OC(=O)CC(C)O)C1C(OC2=O)C(OC(C)=O)C=C2CCN(C)[C@H]21 (some centres undefined); > 100 µM
Cc1cc(N(CCC#N)CCC#N)ccc1/C=C/C(=O)Nc1cccc(Cl)c1; > 100 µM
CCOC(=O)C1=C(NC)OC/C1=N\NC(=O)c1ccccc1O; > 100 µM

IN: # get_value(readout= TGI, system= A549 NSCLC) for Cc1c(C#N)c(=O)[nH]c(=O)n1CCN1CCN(C(=O)NCCCCCCNC(=O)N2CCN(CCn3c(C)c(C#N)c(=O)[nH]c3=O)CC2)CC1
OUT: > 100 µM

IN: Hello, I am looking for reported TGI with A549 NSCLC for CCC(NC(C)c1ccccc1)C(O)c1ccc(OCc2ccccc2)c(OCc2ccccc2)c1 (centres undefined) . Could you help?
OUT: 29.8 µM

IN: Give the reported TGI for CN1CCN(Cc2ccc(NC(=O)c3cncc(C#Cc4cnc(N)c5ccncc45)c3)cc2C(F)(F)F)CC1 (system: A549 NSCLC).
OUT: 6.92 µM

IN: Observed TGI on A549 NSCLC for CC(=O)OC1C(O)COC(O[C@H]2CC[C@]34C[C@]35CC[C@]3(C)C([C@@]6(C)CC[C@@H](C(C)(C)O)O6)[C@@H](O)C[C@@]3(C)C5C[C@H](OC3OCC(O)C(O)C3O)[C@H]4C2(C)C)C1OC1OCC(O)C(O)C1O (some centres undefined) , please.
OUT: > 100 µM

IN: Form field - read-out: TGI; system: A549 NSCLC; submitted item: COC(=O)c1c2n(c3ccccc13)C[C@H]1OC(C)(C)O[C@@H]21
OUT: > 100 µM

IN: Fill in the recorded TGI for this compound, with A549 NSCLC as test system: CCOC(=O)/C(C(=S)Nc1ccccc1)=C(/N)N1CCCC1
OUT: > 100 µM

IN: Param readout= TGI; system= A549 NSCLC; entry= c1ccc(SC(CCCCC(Sc2ccccc2)Sc2ccccc2)Sc2ccccc2)cc1 ; returns value.
OUT: > 100 µM

IN: // fetch A549 NSCLC TGI for Cn1c(/C=C(\O)c2ccc(Cl)cc2)nc2ccccc21
OUT: 69.4 µM

IN: Request - read-out TGI | tested on A549 NSCLC | compound CCN(C(=O)N1CCN(c2cc3c(cc2F)c(=O)c(C(=O)O)cn3C2CC2)CC1)c1nc(-c2ccc(C)cc2)cs1
OUT: > 100 µM

IN: Notebook entry, A549 NSCLC assay: TGI of COCn1c2ccc(OC(C)=O)cc2c2c(=O)oc(N(C)C)nc21 = ?
OUT: > 100 µM

IN: Value wanted: TGI (A549 NSCLC) of entry Cc1sc(Cc2ccccc2)nc1-c1ccc(N)cc1
OUT: > 100 µM

IN: Observed TGI on A549 NSCLC for COC(=O)[C@@H]1CN(C(=O)CCc2ccccc2)C(=O)N1C(=O)OCc1ccccc1 , please.
OUT: > 100 µM

IN: Lab request: please report TGI under test system A549 NSCLC for CNC(=O)N1CN(c2ccccc2)C2(CCN(CCCC(=O)c3ccc(F)cc3)CC2)C1=O
OUT: > 100 µM

IN: Report TGI for O=C1C(=O)N(c2ccc(Cl)c(Cl)c2)C(=O)C(=O)C1c1nc2ccccc2s1 tested on A549 NSCLC.
OUT: > 100 µM

IN: Write down the reported TGI of Cc1cc2c3ccc(C)[n+](C)c3ccc2n1C , test system: A549 NSCLC.
OUT: 9.3 µM

IN: What value of TGI on A549 NSCLC does O=C(O[C@H]1[C@@H](O)[C@H](n2cnc3c(Cl)ncnc32)O[C@@H]1COC(c1ccccc1)(c1ccccc1)c1ccccc1)c1ccccc1 have?
OUT: > 100 µM

IN: What measured TGI is associated with O=C1c2c(c3c4ccccc4[nH]c3c3ccc4ccccc4c23)C(=O)N1CCN1CCCCC1 on A549 NSCLC?
OUT: > 100 µM

IN: Entry C#CCOCC12C=CC(O1)C1C(=O)N(C)C(=O)C12 (centres undefined) , system A549 NSCLC: what TGI was measured?
OUT: > 100 µM

IN: Which measured TGI belongs to C=Cc1c(C)c(OC)cc2c1Oc1ccc(OC)c(C)c1CC2 , tested on A549 NSCLC?
OUT: > 100 µM

IN: Form field - read-out: TGI; system: A549 NSCLC; submitted item: COC(=O)C1C(OC(=O)c2ccccc2)CC2CCC1N2C(N)=O (centres undefined)
OUT: > 100 µM

IN: Query the reported TGI for A549 NSCLC; item: CN(C)c1nc(=Nc2ccc3ccccc3c2)ss1
OUT: > 100 µM
